Compiled notes: published Ki values involving Sodium-dependent serotonin transporter (Homo sapiens, UniProt P31645).
PROPERTY_LABEL: Ki (nM)

In the examples that follow, each entry is paired with its recorded Ki.
{"COMPOUND": "CC(=O)c1cccc(-c2ccccc2CO[C@H]2CCNC2)c1", "ENDPOINT_UNIT": "nM", "Ki": 345}
{"COMPOUND": "CN(C)CCC(Oc1ccccc1)c1ccc(C#CCCN2CCSCC2)cc1 (stereo not shown)", "ENDPOINT_UNIT": "nM", "Ki": 34}

1 = CN(C)CCC(Oc1ccccc1)c1cccc(OCCCN2CCCCC2)c1 (stereo not shown)
2 = COc1ccc(C2CN(C)Cc3cc(C#CCCN4CCCCC4)ccc32)cc1 (stereo not shown)
Hi, I'm comparing 1 with 2 and wondering which one has the bigger number for Ki. Any idea? // caller expects the label of the chosen entry
1
(1: 199 nM, 2: 4 nM)

---

Compiled notes: published Ki values involving Sodium-dependent serotonin transporter (Homo sapiens).
PROPERTY_LABEL: Ki (nM)

1 = CSc1ccc(C2CN(C)Cc3cc(OCC4CCN(C5CCC5)CC4)ccc32)cc1 (stereo not drawn)
2 = O=C(c1ccccc1C(F)(F)F)N(C1CC2CCC1C2)[C@H]1CCNC1 (stereo partly drawn)
3 = CN1Cc2cc(OCCCN3CCCCC3)ncc2C(c2ccc(F)cc2)C1 (stereo not drawn)
4 = CNCc1cc(C#CCCN2CCN(C(C)C)C(=O)C2)ccc1Oc1ccc(SC)cc1
Order the entries above by descending Ki. List the labels, following the order given in the request.
3, 2, 1, 4
(3: 362 nM, 2: 30 nM, 1: 3 nM, 4: 1.2 nM)

---

pKi: −log10 of the molar value.
Compiled notes: published pKi values involving Sodium-dependent serotonin transporter (Homo sapiens).
PROPERTY_LABEL: pKi

In the examples that follow, each entry is paired with its recorded pKi.
{"SMILES_TEXT": "Fc1ccccc1-c1nc(N2CCNCC2)nc2ccc(Cl)cc12", "pKi": 8.08}
{"SMILES_TEXT": "Fc1ccc(Oc2cccc(F)c2OC[C@H]2CCCNC2)cc1F", "pKi": 6.16}
{"SMILES_TEXT": "Cc1ccc(OC[C@H]2CCCNC2)c(Oc2ccc(F)cc2C)n1", "pKi": 6.24}

A = Clc1ccc(OCc2ccc3ncsc3c2)c(OC2CNC2)c1
B = c1ccc(-c2cccc3ncccc23)c(CO[C@H]2CCNC2)c1
Hi, I'm comparing A with B and wondering which one has the bigger number for pKi. Any idea? // caller expects the label of the chosen entry
A

---

Compiled notes: published pKi values involving Sodium-dependent serotonin transporter (Homo sapiens, UniProt P31645).
pKi: −log10 of the molar value.
PROPERTY_LABEL: pKi

{"COMPOUND": "CNCc1cc(C#CCCNC2CC2)ccc1Oc1ccc(SC)cc1", "pKi": 7.92}

1 = Fc1ccc(CCOc2ccc(Cl)cc2OC2CNC2)cc1
2 = Clc1cccc(COc2ccc(Br)cc2OCC2CNC2)c1
Looking at 1 and 2 , which one comes out lower in pKi terms? // caller expects the label of the chosen entry
2

I = CN(C)CCC(Oc1ccc([N+](=O)[O-])cc1)c1ccc(OCCCN2CCCCC2)cc1 (stereo not shown)
II = COc1cccc(F)c1Oc1nc(C)ccc1OC[C@H]1CCCNC1
Looking at I and II , which one comes out lower in pKi terms? // caller expects the label of the chosen entry
II
(II: 7.14, I: 8.05)

1 = COc1ccc(C2CN(C)Cc3cc(C#CCCN4CCSCC4)ccc32)cc1 (stereo not shown)
2 = COc1ccc(C2CNCc3cc(OCC4CCN(C(C)C)CC4)ncc32)cc1 (stereo not shown)
Hi, I'm comparing 1 with 2 and wondering which one has the bigger number for pKi. Any idea? // caller expects the label of the chosen entry
1
(1: 7.89, 2: 7.03)
